The origin of these recorded values is the kinase profiling compilation of Christmann-Franck et al. (2016).

TARGET_SYSTEM: UniProtKB Q9Y3S1
Sequence (Q9Y3S1 whole entry, looked up): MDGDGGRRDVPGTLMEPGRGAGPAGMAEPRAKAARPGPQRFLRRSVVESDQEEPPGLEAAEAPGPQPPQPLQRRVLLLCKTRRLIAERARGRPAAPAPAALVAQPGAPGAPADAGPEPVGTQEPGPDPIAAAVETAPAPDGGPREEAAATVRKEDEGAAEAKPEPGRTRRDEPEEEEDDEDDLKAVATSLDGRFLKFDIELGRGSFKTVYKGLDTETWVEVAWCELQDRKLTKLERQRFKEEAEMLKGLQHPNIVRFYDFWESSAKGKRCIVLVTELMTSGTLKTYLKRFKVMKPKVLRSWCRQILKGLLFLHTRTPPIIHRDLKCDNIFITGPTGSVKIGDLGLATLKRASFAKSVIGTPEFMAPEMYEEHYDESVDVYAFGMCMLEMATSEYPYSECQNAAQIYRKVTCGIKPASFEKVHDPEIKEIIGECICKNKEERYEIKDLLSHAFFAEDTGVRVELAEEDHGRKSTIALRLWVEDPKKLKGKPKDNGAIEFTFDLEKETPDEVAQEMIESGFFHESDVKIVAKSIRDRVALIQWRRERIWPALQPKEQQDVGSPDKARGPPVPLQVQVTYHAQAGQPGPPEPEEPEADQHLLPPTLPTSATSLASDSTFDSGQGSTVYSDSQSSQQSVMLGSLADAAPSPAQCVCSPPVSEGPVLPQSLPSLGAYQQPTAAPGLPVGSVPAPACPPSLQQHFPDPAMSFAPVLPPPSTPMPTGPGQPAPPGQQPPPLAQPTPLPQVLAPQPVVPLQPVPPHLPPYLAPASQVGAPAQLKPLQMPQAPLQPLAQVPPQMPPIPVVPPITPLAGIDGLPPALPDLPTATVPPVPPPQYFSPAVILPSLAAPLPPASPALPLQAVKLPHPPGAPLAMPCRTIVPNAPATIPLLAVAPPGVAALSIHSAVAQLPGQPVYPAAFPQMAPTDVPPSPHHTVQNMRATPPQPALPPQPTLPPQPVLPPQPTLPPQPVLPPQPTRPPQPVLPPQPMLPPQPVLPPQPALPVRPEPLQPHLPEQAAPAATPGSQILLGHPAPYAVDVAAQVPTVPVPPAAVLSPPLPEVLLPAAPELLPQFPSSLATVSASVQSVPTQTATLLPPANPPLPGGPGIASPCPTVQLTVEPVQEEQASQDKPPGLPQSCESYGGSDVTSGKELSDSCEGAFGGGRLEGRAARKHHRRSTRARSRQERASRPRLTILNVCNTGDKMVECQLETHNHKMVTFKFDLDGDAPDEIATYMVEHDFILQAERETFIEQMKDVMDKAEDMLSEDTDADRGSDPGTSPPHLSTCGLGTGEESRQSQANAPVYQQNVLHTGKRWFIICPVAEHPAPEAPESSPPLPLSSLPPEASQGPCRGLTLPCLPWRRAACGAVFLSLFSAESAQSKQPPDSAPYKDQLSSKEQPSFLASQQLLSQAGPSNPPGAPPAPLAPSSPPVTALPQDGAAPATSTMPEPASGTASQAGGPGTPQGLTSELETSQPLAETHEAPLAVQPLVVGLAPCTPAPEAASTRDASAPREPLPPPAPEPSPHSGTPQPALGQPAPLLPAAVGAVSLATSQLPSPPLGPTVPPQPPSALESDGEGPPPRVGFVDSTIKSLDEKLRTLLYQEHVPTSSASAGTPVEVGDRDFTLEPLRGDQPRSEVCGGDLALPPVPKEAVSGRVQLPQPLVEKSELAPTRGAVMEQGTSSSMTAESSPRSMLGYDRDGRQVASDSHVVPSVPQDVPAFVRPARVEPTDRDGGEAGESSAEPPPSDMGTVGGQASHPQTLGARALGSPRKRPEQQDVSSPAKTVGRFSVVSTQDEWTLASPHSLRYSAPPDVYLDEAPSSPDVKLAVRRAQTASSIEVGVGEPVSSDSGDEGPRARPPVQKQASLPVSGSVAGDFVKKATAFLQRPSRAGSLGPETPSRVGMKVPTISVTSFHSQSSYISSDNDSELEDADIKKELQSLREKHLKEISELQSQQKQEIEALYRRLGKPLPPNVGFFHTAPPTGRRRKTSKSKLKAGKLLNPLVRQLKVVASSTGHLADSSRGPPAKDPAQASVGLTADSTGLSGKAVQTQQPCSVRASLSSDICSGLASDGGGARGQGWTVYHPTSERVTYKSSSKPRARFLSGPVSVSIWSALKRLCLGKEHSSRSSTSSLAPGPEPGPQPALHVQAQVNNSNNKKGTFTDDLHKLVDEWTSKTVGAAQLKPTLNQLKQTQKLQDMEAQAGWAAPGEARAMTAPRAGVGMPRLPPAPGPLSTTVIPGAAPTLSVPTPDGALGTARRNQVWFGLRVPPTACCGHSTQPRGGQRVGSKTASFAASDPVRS
PROTOCOL_DETAILS: radiometric filter-binding kinase assay, Kinase HotSpot
CONDITIONS_USED: compound 0.5 µM; ATP 10 µM
Please respond with reported residual activity for every item in the list.
Dear colleague, please send the value followed by its unit.

O=C(NC(NC(=S)Nc1ccc(F)c([N+](=O)[O-])c1)C(Cl)(Cl)Cl)C(c1ccccc1)c1ccccc1 (stereo unspecified): 117%
NC(=O)c1ccc(N(C(N)=O)c2c(F)cccc2F)nc1-c1ccc(F)cc1F: 96.4%
O=C1Cc2c([nH]c3ccc([N+](=O)[O-])cc23)-c2ccccc2N1: 116%
Nc1n[nH]c2nnc(-c3c(-c4ccccc4)nn4ccccc34)cc12: 111%
O=c1cc(N2CCNCC2)oc2c(-c3ccccc3)cccc12: 111%

Report residual activity for every entry below.
1. CCCNC(=O)Nc1ccc(Oc2ncnc3cc(OC)c(OC)cc23)cc1Cl
2. COc1cc2ncnc(Nc3ccc(F)c(Cl)c3)c2cc1OCCCN1CCOCC1
3. O=c1cc(-c2cccc3c2Sc2ccccc2S3)oc(N2CCOCC2)c1
4. Cc1ccc(NC(=O)c2ccc(CN3CCN(C)CC3)cc2)cc1Nc1nc(-c2cccnc2)cs1
5. O=C1Nc2cc(Br)ccc2/C1=C1/Nc2ccccc2/C1=N\O
6. CS(=O)c1ccc(-c2nc(-c3ccc(F)cc3)c(-c3ccncc3)[nH]2)cc1 (stereo unspecified)

### Response
1. 100%
2. 97.2%
3. 116%
4. 99.2%
5. 104%
6. 103%
